- Test system: S. pyogenes SKKanGAS, kanamycin survival, BacTiterGlo, 6 h
- Assay name: S. pyogenes SKKanGAS kanamycin growth inhibitors – SKKanGAS strain, luminescence, dose confirmation, streptokinase promoter inhibitor project, dose response (AID 1902);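 also: lower survival reflects blocked streptokinase promoter driving kanamycin resistance gene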
Activity calls are given as the source filed them.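 The calls were made as follows: active = EC50 no more than a set limit of log units above the highest dose; inactive = the rest.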

# Compound, EC50
records = [
    ("COc1cnc(-c2ccccn2)nc1Oc1ccc(C(C)(C)C)cc1", "7.68 µM"),
    ("Cc1ccc(C(=O)Nc2nnc(S(=O)(=O)N3CCN(c4ccc(F)cc4)CC3)s2)cc1", "> 15 µM (inactive)"),
    ("O=[N+]([O-])c1cc(S(=O)(=O)C(F)(F)F)ccc1Sc1nc2ccccc2[nH]1", "4.1 µM"),
    ("Cc1ccc2nc(NNC(=O)c3ccc(S(=O)(=O)N4CCc5ccccc5C4)cc3)sc2c1", "0.793 µM"),
    ("O=C(Nc1nnc(-c2ccc(Cl)cc2)o1)c1nc2ccccc2s1", "0.178 µM"),
    ("COc1ccc(OC)c(/C=C/c2ccc3cccc(O)c3n2)c1", "0.197 µM"),
    ("O=C(O)CSCC(=O)N(Cc1ccccc1)c1nc(-c2ccccc2)c(-c2ccccc2)s1", "1.58 µM"),
    ("CC1CCCC(C)N1c1nnc(NC(=O)c2cc(-c3ccc(Br)cc3)on2)s1 (stereo not given)", "2.79 µM"),
    ("O=C(OCc1ccccc1)c1cccc(-c2nnn(Cc3ccccc3)n2)c1", "2.73 µM"),
    ("CCOc1ccc(/C=C2/Sc3ccc(C(=O)N4CCN(C(=O)c5ccco5)CC4)cc3N(C)C2=O)cc1OC", "4.19 µM"),
    ("O=C(NNc1nc2ccc(Cl)cc2s1)c1cc(-c2cccs2)nc2ccccc12", "0.334 µM"),
    ("Cc1c(Cl)c([N+](=O)[O-])nn1Cc1ccc(C(=O)N/N=C\\c2cc(Cl)ccc2O)o1", "1.48 µM"),
    ("Cc1ccc(/C=N/NC(=O)C2=NNC(c3ccccc3)(c3ccccc3)C2)c(O)c1", "4.01 µM"),
    ("C#CCOCCOCCOCCNc1nc(N2CCN(C(=O)CCCCCCCCCCNC(=O)[C@H](CCCCN)n3cc(C[C@@H](C)CC)nn3)CC2)nc(N2CCN(C(=O)CCCCCCCCCCNC(=O)[C@H](CCCCN)n3cc(C[C@@H](C)CC)nn3)CC2)n1", "5.16 µM"),
    ("O=C1C2=C(NC(=S)NC2c2ccc(Cl)cc2)NC(c2ccc(Cl)cc2)N1c1ccc(Cl)cc1 (stereo not given)", "1.93 µM"),
    ("CCCCCC(=O)NC(=S)NC1C2CC3CC(C2)CC1C3 (stereo not given)", "3.83 µM"),
    ("COc1cc2c(C(=O)N3CCN(c4ccccc4C)CC3)c(C)oc2cc1Br", "10.3 µM"),
    ("Cc1nn(-c2ccccc2)c(C)c1/C=N/NC(=O)c1cc(C23CC4CC(CC(C4)C2)C3)[nH]n1", "6.98 µM"),
    ("Cc1ccc(-n2sc3ccccc3c2=O)cc1", "1.27 µM"),
    ("NS(=O)(=O)c1ccc(-c2ccc(/C=C3\\SC(=S)N(C4CCS(=O)(=O)C4)C3=O)o2)cc1 (stereo not given)", "4.95 µM"),
    ("Cc1nc2c(C(=O)Nc3ccc(N4CCCC(O)C4)cc3)snc2c(=O)[nH]1 (stereo not given)", "4.46 µM"),
    ("CCOC(=O)c1cnc(-n2nc(C)cc2C)nc1NC1CCCC1", "2.58 µM"),
    ("CCOC(=O)c1c(NC(=O)COC(=O)c2ccc(C)s2)sc2c1CC(C)(C)NC2(C)C", "3.7 µM"),
    ("CCc1ccc(C2C(C#N)=C(N)C(C#N)(C#N)C3=CCC(C(C)(C)C)CC32)cc1 (stereo not given)", "5.18 µM"),
    ("O=c1c2ccccc2sn1-c1cc(S(=O)(=O)N2CCOCC2)ccc1N1CCOCC1", "13.3 µM"),
    ("O=[N+]([O-])c1cc(Cl)cc(/C=N\\Nc2ccccn2)c1O", "2.89 µM"),
    ("Cc1oc2cc(Br)c(O)c(Br)c2c1-c1ccccc1", "3.28 µM"),
    ("Nc1c(S(=O)(=O)c2cccs2)c2nc3ccccc3nc2n1/N=C/c1cccc(O)c1", "4.53 µM"),
    ("C/C(=N\\NC(=S)NCC(C)(C)C)c1cc(F)cc(F)c1O", "2.65 µM"),
    ("Cc1ccc(Cn2c(C(CO)Nc3nc(-c4ccc(F)cc4)cs3)nc3ccccc32)cc1 (stereo not given)", "3.35 µM"),
    ("O=S(=O)(Nc1cccc2cccnc12)c1ccccc1", "4.39 µM"),
    ("COc1ccc(/C=C2/Sc3ccc(C(=O)N4CCc5ccccc5C4)cc3NC2=O)cc1", "1.65 µM"),
    ("Clc1ccc(-[n+]2c(-c3cccc(Br)c3)[nH]c3nc4ccccc4nc32)cc1", "1.67 µM"),
    ("O=C(CCc1ccccc1)NNC(=S)NC(=O)c1ccccc1", "1.81 µM"),
    ("C/C(=N\\Nc1cc(C)nc(-c2ccccc2O)n1)c1ccccc1O", "5.37 µM"),
]
